Each entry below lists one item and its recorded IC50 value.
- tested.on: Recombinant ROCK1 (amino acids 1-477) (Homo sapiens, UniProt Q13464)
- Construct: Recombinant ROCK1 (amino acids 1-477); by word order, ROCK1 from Carna Biosciences
- Sequence (Q13464 1-477): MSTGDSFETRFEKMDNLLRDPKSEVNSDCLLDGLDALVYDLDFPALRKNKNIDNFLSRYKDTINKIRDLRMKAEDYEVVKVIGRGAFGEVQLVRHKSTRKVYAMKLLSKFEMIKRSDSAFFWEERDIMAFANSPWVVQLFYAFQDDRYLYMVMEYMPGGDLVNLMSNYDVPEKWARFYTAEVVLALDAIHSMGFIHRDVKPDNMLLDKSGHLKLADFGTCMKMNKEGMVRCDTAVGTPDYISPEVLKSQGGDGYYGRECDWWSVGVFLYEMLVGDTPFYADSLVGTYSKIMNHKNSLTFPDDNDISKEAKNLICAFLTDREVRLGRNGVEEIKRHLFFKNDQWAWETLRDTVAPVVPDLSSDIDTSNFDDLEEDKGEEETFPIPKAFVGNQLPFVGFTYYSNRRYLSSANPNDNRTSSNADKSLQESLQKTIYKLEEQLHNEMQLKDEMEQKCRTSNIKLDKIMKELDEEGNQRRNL
- assay.text: ROCK inhibition assay, LANCE Ultra TR-FRET kinase assay (ROCK1)
- protocol.conditions: 1 μM ATP, 50 nM ULight-CREBtide substrate

smiles.input	result.value
C[C@H](c1cccc(C(=O)NC2COC2)c1)n1cnc2cc(-c3cn[nH]c3N)ccc2c1=O	0.011 to 0.1 µM
C[C@H](c1cccc(C(=O)NCCO)c1)n1cnc2cc(-c3cn[nH]c3C(F)F)ccc2c1=O	0.101 to 0.5 µM

q: What value of IC50 has been recorded for this entry: "CNC(=O)c1cccc(Cn2ccc3cc(-c4ccnc(N)c4)ncc3c2=O)c1"
a: 0.101 to 0.5 µM

q: Please do the same for "Cc1nocc1-c1cc2ccn(Cc3cc(F)cc(C(=O)NCCN4CCOCC4)c3)c(=O)c2cn1" as well.
a: 0.011 to 0.1 µM

q: Follow-up item: "CNC(=O)c1cccc(Cn2ccc3cc(-c4cn[nH]c4C(F)(F)F)ncc3c2=O)c1"
a: 0.011 to 0.1 µM

q: For "CO[C@H]1CC[C@H](NC(=O)c2cc(F)cc(Cn3ccc4cc(-c5conc5C)ccc4c3=O)c2)CC1" then?
a: > 0.501 µM

q: Check "Cc1nocc1-c1ccc2c(=O)n(Cc3cccc(C(=O)Nc4nc5c(s4)CCN(C(C)C)C5)c3)ccc2c1" too.
a: 0.011 to 0.1 µM

q: // next record "Cn1ccc(NC(=O)c2cccc(Cn3cnc4cc(-c5cn[nH]c5C(F)(F)F)ccc4c3=O)c2)n1"
a: 0.011 to 0.1 µM

q: Consider next the compound "Cc1nocc1-c1ccc2c(=O)n([C@H](C)c3cccc(C(=O)NCC4CCN(C)CC4)c3)cnc2c1" in the same way.
a: < 0.01 µM

q: Also check "CNC(=O)c1cccc(Cn2ccc3cc(-c4cnoc4)ccc3c2=O)c1"
a: > 0.501 µM

q: How about this compound: "O=C(Nc1cccc(Cn2ccc3cc(-c4c[nH]nc4C(F)F)ccc3c2=O)c1)c1ccccc1"
a: 0.101 to 0.5 µM

q: Another compound: "[2H]C([2H])([2H])NC(=O)c1cccc(Cn2cnc3cc(-c4ccnn4C)ccc3c2=O)c1"
a: 0.011 to 0.1 µM

q: Now give it for "Cc1nocc1-c1ccc2c(=O)n(Cc3cccc(C(=O)NCCc4cccnc4)c3)cnc2c1" too.
a: < 0.01 µM

q: Okay, and "COc1cccc(Cn2ccc3cc(-c4ccnc(N)c4)ccc3c2=O)c1" ?
a: > 0.501 µM

q: Quick one: "CNC(=O)c1cncc(Cn2cnc3cc(-c4cn[nH]c4Cl)ccc3c2=O)c1"
a: > 0.501 µM

q: Lookup "CNC(=O)c1cccc(Cn2ccc3cc(-c4conc4C)ccc3c2=O)c1F"
a: 0.101 to 0.5 µM

====

# maps each entry to its pIC50
- tested.on: Recombinant ROCK2 (amino acids 5-554) (Homo sapiens, UniProt O75116)
- Construct: ROCK2 (amino acids 5-554); by word order, ROCK2 from SignalChem
- Sequence (O75116 5-554): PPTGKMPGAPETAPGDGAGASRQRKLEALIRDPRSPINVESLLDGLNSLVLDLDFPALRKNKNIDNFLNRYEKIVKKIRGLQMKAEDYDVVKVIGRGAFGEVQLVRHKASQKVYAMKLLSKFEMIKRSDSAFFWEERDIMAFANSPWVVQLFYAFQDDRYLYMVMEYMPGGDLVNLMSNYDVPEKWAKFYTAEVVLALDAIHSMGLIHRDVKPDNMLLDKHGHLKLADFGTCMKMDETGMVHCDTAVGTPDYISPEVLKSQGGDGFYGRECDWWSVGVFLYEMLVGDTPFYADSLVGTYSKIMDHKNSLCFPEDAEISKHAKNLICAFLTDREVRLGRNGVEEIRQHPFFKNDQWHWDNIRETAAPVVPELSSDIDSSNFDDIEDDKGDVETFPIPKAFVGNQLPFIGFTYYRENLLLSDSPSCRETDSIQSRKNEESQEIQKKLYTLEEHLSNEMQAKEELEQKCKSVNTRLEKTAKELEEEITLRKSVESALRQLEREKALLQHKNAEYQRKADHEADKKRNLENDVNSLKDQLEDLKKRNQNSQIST
- assay.text: ROCK inhibition assay, LANCE Ultra TR-FRET kinase assay (ROCK2)
- protocol.conditions: 4 μM ATP, 50 nM ULight-CREBtide substrate
pIC50: −log10 of the molar value.

Worked cases, pIC50 given:
molecule	pIC50
O=C(NC1CC1)c1cc(F)cc(Cn2ccc3cc(-c4c[nH]nc4C(F)(F)F)ccc3c2=O)c1	7.00 to 8.00
CNC(=O)c1cc(F)cc([C@@H](C)n2cnc3cc(-c4cn[nH]c4C(F)F)ccc3c2=O)c1	> 8.00
CN1CCc2sc(NC(=O)c3cccc(Cn4ccc5cc(-c6ccnn6C)ccc5c4=O)c3)nc2C1	> 8.00
CNC(=O)c1cccc(Cn2ccc3cc(-c4cn[nH]c4Cl)ccc3c2=O)c1	> 8.00

Now look at this one.
q: Please look up its pIC50: "CC(=O)Nc1cc(F)cc(Cn2ccc3cc(-c4conc4C)ccc3c2=O)c1"
a: 7.00 to 8.00

====

- tested.on: Recombinant ROCK2 (amino acids 5-554) (Homo sapiens)
- Construct: ROCK2 (amino acids 5-554); by word order, ROCK2 from SignalChem
- assay.text: ROCK inhibition assay, LANCE Ultra TR-FRET kinase assay (ROCK2)
- protocol.conditions: 4 μM ATP, 50 nM ULight-CREBtide substrate
pIC50: −log10 of the molar value.
Items are presented alongside their recorded pIC50.

Check out these entries, answers already filled in.
compound	pIC50
CNC(=O)c1cc(Cn2ccc3cc(-c4cn[nH]c4C(F)(F)F)ccc3c2=O)ccc1F [Compound 284]	7.00 to 8.00
Cc1nocc1-c1ccc2c(=O)n(Cc3cccc(C(=O)NC(C)C)c3)cnc2c1 [Compound 414]	7.00 to 8.00
C[C@H](c1cccc(C(=O)NC2CCN(C)CC2)c1)n1cnc2cc(-c3cn[nH]c3C(F)(F)F)ccc2c1=O [Compound 450]	> 8.00

Next compound, pIC50 to be filled in.
q: Quick one: pIC50 of CNC(=O)c1cc(F)cc(Cn2ccc3cc(-c4cn[nH]c4C)ncc3c2=O)c1 [Compound 248] ?
a: 7.00 to 8.00

====

- tested.on: Recombinant ROCK2 (amino acids 5-554) (Homo sapiens, UniProt O75116)
- Construct: ROCK2 (amino acids 5-554); by word order, ROCK2 from SignalChem
- assay.text: ROCK inhibition assay, LANCE Ultra TR-FRET kinase assay (ROCK2)
- Type: biochemical
- protocol.conditions: 4 μM ATP, 50 nM ULight-CREBtide substrate
pIC50: −log10 of the molar value.
reported.property: pIC50

// worked examples, pIC50 included
compound	tested.on	pIC50
Cc1nocc1-c1ccc2c(=O)n(Cc3cccc(C(=O)NCC(F)(F)F)c3)ccc2c1 [Compound 67]	Recombinant ROCK2 (amino acids 5-554) (Homo sapiens, UniProt O75116)	7.00 to 8.00
Cn1nccc1-c1cc2ccn(Cc3cc(F)cc(C(=O)NCCc4cccnc4)c3)c(=O)c2cn1 [Compound 271]	Recombinant ROCK2 (amino acids 5-554) (Homo sapiens, UniProt O75116)	> 8.00
O=C(NCC1CCN(C2COC2)CC1)c1cccc(Cn2ccc3cc(N4CCOCC4)ccc3c2=O)c1 [Compound 227]	Recombinant ROCK2 (amino acids 5-554) (Homo sapiens, UniProt O75116)	7.00 to 8.00

q: Item Cc1nocc1-c1ccc2c(=O)n(Cc3cc(F)cc(C(=O)NCc4ccc(F)nc4)c3)ccc2c1 [Compound 147] has what recorded pIC50?
a: > 8.00

q: What do you have for Cc1[nH]ncc1-c1ccc2c(=O)n(C(CN)c3cccc(Cl)c3)cnc2c1 (stereo not shown) [Compound 494] ?
a: > 8.00

q: What would you report for Cc1nocc1-c1cc2ccn(Cc3cc(F)cc(C(=O)NCCN4CCOCC4)c3)c(=O)c2cn1 [Compound 267] ?
a: > 8.00

q: Similarly, CNC(=O)c1cccc(C(C)n2ccc3cc(-c4cn[nH]c4C(F)(F)F)ccc3c2=O)c1 (stereo not shown) [Compound 279] ?
a: > 8.00

q: And for COc1cccc(C(CN)n2cnc3cc(-c4cn[nH]c4C(F)(F)F)ccc3c2=O)c1 (stereo not shown) [Compound 499] ?
a: > 8.00

q: Entry to check: O=C(NCC1CCN(CC(F)F)CC1)c1cccc(Cn2ccc3cc(N4CCOCC4)ccc3c2=O)c1 [Compound 219]
a: 7.00 to 8.00

====

- tested.on: Recombinant ROCK1 (amino acids 1-477) (Homo sapiens)
- Construct: Recombinant ROCK1 (amino acids 1-477); by word order, ROCK1 from Carna Biosciences
- assay.text: ROCK inhibition assay, LANCE Ultra TR-FRET kinase assay (ROCK1)
- protocol.conditions: 1 μM ATP, 50 nM ULight-CREBtide substrate
- Experimental: Kinase IC50 was determined through an in vitro assay based on LANCE Ultra TR-FRET (Time-Resolved Fluorescence Resonance Energy Transfer) homogeneous technologies method (Perkin Elmer). […] Compound activities were measured by Envision and IC50s were calculated. […] The reaction was incubated for 1 hour, and the signal was read in Envision in TR-FRET mode (excitation at 320 nm and emission at 615/665 nm). […]
pIC50: −log10 of the molar value.
pIC50 values for the molecules below.

As a guide, the following entries are already answered.
molecule	pIC50
CN1CCC(CNC(=O)c2cc(F)cc(Cn3ccc4cc(-c5c[nH]nc5Br)ncc4c3=O)c2)CC1	> 8.00
O=C(NC1CCN(C2COC2)CC1)c1cccc(Cn2cnc3cc(-c4cn[nH]c4C(F)(F)F)ccc3c2=O)c1	7.00 to 7.96

q: Using the record for CNC(=O)c1cccc(C(C)n2ccc3cc(-c4cn[nH]c4C(F)(F)F)ccc3c2=O)c1 (centres unmarked) , report its pIC50.
a: 7.00 to 7.96

q: # repeat for "CO[C@H]1CC[C@@H](NC(=O)c2cc(F)cc(Cn3ccc4cc(-c5conc5C)ccc4c3=O)c2)CC1"
a: < 6.30

q: Another molecule to look at: COc1cccc(C(C)n2ccc3cc(-c4ccnc(N)c4)ccc3c2=O)c1 (centres unmarked)
a: 6.30 to 7.00

q: And then CNC(=O)c1cccc(C(C)n2cc(CCN(C)C)c3cc(-c4cn[nH]c4C(F)(F)F)ccc3c2=O)c1 (centres unmarked) , what is it?
a: 7.00 to 7.96

q: Again, but for "Nc1cc(-c2ccc3c(=O)n(Cc4cccc(C(=O)NCc5ccccc5CO)c4)ccc3c2)ccn1"
a: 6.30 to 7.00

q: Same question, "CNC(=O)c1cccc(Cn2ccc3cc(-c4ccoc4)ccc3c2=O)c1" this time
a: < 6.30
